Value source: ChEMBL document CHEMBL1126473

Assay: Ability to inhibit the binding of [125I]CCK-8 to Cholecystokinin type B receptor in guinea pig cortex.
Please provide measured IC50 for the entries that follow.
Give just the number in nM; leave the unit off.

// query Query: IC50; subject: O=C(Nc1ccc(Cl)cc1)NC1N=C(c2ccccc2)c2ccccc2N(CC(=O)N2CCCC2)C1=O (configuration not stated)
// result 0.28

// query Likewise for CCOC(=O)CN1C(=O)C(NC(=O)Nc2ccc(Cl)cc2)N=C(c2ccccc2)c2ccccc21 (configuration not stated) ?
// result 1
